Target: Dual specificity protein kinase CLK2 (Homo sapiens, UniProt P49760)
Sequence (P49760 whole entry): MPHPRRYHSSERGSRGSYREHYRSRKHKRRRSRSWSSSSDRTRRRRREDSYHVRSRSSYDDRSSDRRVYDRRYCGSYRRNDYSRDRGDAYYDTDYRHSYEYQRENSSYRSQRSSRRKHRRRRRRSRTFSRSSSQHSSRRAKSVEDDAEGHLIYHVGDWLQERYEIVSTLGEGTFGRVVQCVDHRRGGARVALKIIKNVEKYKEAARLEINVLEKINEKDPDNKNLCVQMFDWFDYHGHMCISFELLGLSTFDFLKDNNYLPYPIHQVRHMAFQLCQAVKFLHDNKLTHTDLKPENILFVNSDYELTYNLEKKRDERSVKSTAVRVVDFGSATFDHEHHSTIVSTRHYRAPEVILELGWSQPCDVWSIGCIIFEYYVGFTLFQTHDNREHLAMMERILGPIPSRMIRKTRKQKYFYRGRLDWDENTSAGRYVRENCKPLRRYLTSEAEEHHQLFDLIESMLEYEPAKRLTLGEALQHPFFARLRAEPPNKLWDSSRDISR
Under this convention, yes (1) denotes IC50 strictly below 100 nM and no (0) denotes IC50 at or above 100 nM.

Some entries whose results are on file:
[[record]]
compound = "O=C1NC(NC(CO)C2CCCCC2)=N/C1=C\\c1ccc2ncsc2c1 (racemic)"
label = "yes (1)"

[[record]]
compound = "CO[C@@H]1Cc2ccccc2[C@H]1NC1=N/C(=C\\c2ccc3ncsc3c2)C(=O)N1 (racemic)"
label = "yes (1)"


## Input Regarding O=C1NC(NC2CCCC(F)(F)C2)=N/C1=C\c1ccc2ncsc2c1 (racemic) , kindly confirm whether its IC50 is beneath 100 nM.
## Output yes (1)

## Input Is the reported IC50 for O=C1NC(NC2CCCCCC2)=N/C1=C\c1ccc2c(c1)OCO2 strictly below 100 nM?
## Output no (0)

## Input Take the compound O=C1NC(Nc2cccc(OC(F)F)c2)=N/C1=C\c1ccc2ncsc2c1 and say whether its IC50 is less than 100 nM.
## Output no (0)

* * *

Entries with reported pIC50 on Dual specificity protein kinase CLK1 (Homo sapiens, UniProt P49759)
Sequence (P49759 whole entry): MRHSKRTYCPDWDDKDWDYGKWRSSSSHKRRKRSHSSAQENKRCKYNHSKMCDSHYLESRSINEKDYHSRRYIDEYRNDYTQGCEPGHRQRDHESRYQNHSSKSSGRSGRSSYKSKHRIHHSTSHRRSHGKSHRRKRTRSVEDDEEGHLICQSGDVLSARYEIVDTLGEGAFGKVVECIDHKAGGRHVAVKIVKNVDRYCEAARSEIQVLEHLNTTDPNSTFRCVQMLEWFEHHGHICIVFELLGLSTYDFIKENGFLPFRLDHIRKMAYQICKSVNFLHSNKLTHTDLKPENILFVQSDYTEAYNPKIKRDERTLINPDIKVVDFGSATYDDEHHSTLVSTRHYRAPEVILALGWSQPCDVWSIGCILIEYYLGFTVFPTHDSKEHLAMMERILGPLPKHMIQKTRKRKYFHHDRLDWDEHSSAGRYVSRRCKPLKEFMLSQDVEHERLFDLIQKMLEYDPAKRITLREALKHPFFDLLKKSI
pIC50 is a log-scale quantity: -log10 of the concentration expressed in molar.

[[record]]
input_smiles = "O=C1NC(NC23CC4CC(CC(C4)C2)C3)=N/C1=C\\c1ccc2[nH]ccc2c1"
numeric_result = 5.05

[[record]]
input_smiles = "C[C@@H](NC1=N/C(=C\\c2ccc3ncsc3c2)C(=O)N1)C1CCCCC1"
numeric_result = 7.36


Below: the item to evaluate.
## Input Identify the measured pIC50 of O=C1NC(NC23CC4CC(CC(C4)C2)C3)=N/C1=C\c1ccc2scnc2c1 for Dual specificity protein kinase CLK1 (Homo sapiens, UniProt P49759).
## Output 5.05

* * *

Please consider the recorded pIC50 for Casein kinase I isoform epsilon (Homo sapiens) in what follows.
pIC50: −log10 of the molar value.

[[record]]
molecule = "CN1CC[C@@](C)(NC2=N/C(=C\\c3ccc4ncsc4c3)C(=O)N2)C1=O (stereo in doubt)"
target_or_system = "Casein kinase I isoform epsilon (Homo sapiens)"
result = "< 5.00"

[[record]]
molecule = "O=C1NC(NC23CC4CC(CC(C4)C2)C3)=N/C1=C\\c1ccc2c(c1)CCO2"
target_or_system = "Casein kinase I isoform epsilon (Homo sapiens)"
result = "< 5.00"

[[record]]
molecule = "O=C1NC(NC2CCCCCC2)=N/C1=C\\c1ccc2c(c1)OCO2"
target_or_system = "Casein kinase I isoform epsilon (Homo sapiens)"
result = "< 5.00"

[[record]]
molecule = "O=C1NC(NC23CC4CC(CC(O)(C4)C2)C3)=N/C1=C\\c1ccc2ncsc2c1"
target_or_system = "Casein kinase I isoform epsilon (Homo sapiens)"
result = 5.96


## Input Short answer please: pIC50, Casein kinase I isoform epsilon (Homo sapiens), entry CC1(C)CCC(NC2=N/C(=C\c3ccc4ncsc4c3)C(=O)N2)CO1 (racemic)
## Output < 5.00

## Input Kindly state the measured pIC50 obtained for CN(C)C12CC3CC(CC(NC4=N/C(=C\c5ccc6ncsc6c5)C(=O)N4)(C3)C1)C2 with Casein kinase I isoform epsilon (Homo sapiens).
Sequence (P49674 whole entry, canonical isoform): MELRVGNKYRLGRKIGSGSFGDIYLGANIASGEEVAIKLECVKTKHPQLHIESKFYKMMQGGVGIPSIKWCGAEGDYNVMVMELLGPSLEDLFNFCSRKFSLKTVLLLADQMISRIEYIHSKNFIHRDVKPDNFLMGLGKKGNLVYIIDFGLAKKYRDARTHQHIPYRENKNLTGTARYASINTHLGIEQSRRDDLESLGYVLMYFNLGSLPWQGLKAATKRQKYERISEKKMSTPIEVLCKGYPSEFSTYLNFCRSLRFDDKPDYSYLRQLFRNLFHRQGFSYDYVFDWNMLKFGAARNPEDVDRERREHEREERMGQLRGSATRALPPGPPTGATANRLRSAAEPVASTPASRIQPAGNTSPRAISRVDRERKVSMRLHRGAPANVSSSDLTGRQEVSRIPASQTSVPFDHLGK
## Output 5.83

## Input # value lookup — system Casein kinase I isoform epsilon (Homo sapiens), readout pIC50, item CC(NC1=N/C(=C\c2ccc3ncsc3c2)C(=O)N1)C12CC3CC(CC(C3)C1)C2 (racemic)
## Output < 5.00

## Input Hi! What's the reported pIC50 for O=C1NC(Nc2ccccc2)=N/C1=C\c1ccc2ncsc2c1 on Casein kinase I isoform epsilon (Homo sapiens)?
## Output < 5.00

## Input Form field - read-out: pIC50; system: Casein kinase I isoform epsilon (Homo sapiens); submitted item: O=C1NC(NC2CCCNC2=O)=N/C1=C\c1ccc2ncsc2c1 (racemic)
## Output < 5.00
